readout-type: melting point

* Cc1cccc(C)c1NC(=O)N/N=C/c1ccc2c(cnn2-c2ccc(OC(F)(F)F)cc2)c1 | 227 to 233 °C
* CC(C)c1ccccc1NC(=O)N/N=C/c1ccc2c(cnn2-c2ccc(OC(F)(F)F)cc2)c1 | 207 to 213 °C
* CC(C)c1ccccc1NC(=O)N/N=C/c1ccc2c(c1)C(=O)N(c1ccc(OC(F)(F)F)cc1)C2=O | 239 to 240 °C
* Cc1cccc(C)c1NC(=O)N/N=C/c1ccc2nc(-c3ccc(OC(F)(F)F)cc3)n(C)c2c1 | 218 to 219 °C
* O=C1c2ccc(/C=N/NC(=S)Nc3ccccc3C(F)(F)F)cc2C(=O)N1c1ccc(OC(F)(F)F)cc1 | 235 to 236 °C

Please examine the following record next.
Given the entry `Cc1cccc(C)c1NC(=S)N/N=C/c1ccc2nn(-c3ccc(OC(F)(F)F)cc3)cc2c1` , report its measured melting point.
225 to 234 °C

* * *

Reported percent effect (mortality or growth inhibition) at 200 ppm values for a set of compounds
Test system: Plutella xylostella
protocol-description: Plutella xylostella (diamond back moth), treated artificial diet, L2 larvae
Type: in vivo
condition-notes: 120 h, application rate of 200 ppm, 5 days after infestation, in comparison to untreated samples, read-out: effect in at least one of the two categories (mortality or growth inhibition)

Given the entry `Cc1cccc(C)c1NC(=S)N/N=C/c1ccc2c(c1)nc(-c1ccc(OC(F)(F)F)cc1)n2C` , report its measured percent effect (mortality or growth inhibition) at 200 ppm.
≥ 80%

Given the entry `Cc1cccc(C)c1NC(=S)N/N=C/c1ccc2c(c1)C(=O)N(c1ccc(OC(F)(F)F)cc1)C2=O` , report its measured percent effect (mortality or growth inhibition) at 200 ppm.
≥ 80%

Given the entry Cc1cccc(C)c1NC(=S)N/N=C/c1ccc2cn(-c3ccc(OC(F)(F)F)cc3)nc2c1 [Compound P1] , report its measured percent effect (mortality or growth inhibition) at 200 ppm.
≥ 80%

Given the entry `CC(C)c1ccccc1NC(=O)N/N=C/c1ccc2sc(-c3ccc(OC(F)(F)F)cc3)nc2c1` , report its measured percent effect (mortality or growth inhibition) at 200 ppm.
≥ 80%

Given the entry `CC(C)c1ccccc1NC(=S)N/N=C/c1ccc2c(c1)nc(-c1ccc(OC(F)(F)F)cc1)n2C` , report its measured percent effect (mortality or growth inhibition) at 200 ppm.
≥ 80%

Given the entry `Cc1cccc(C)c1NC(=S)N/N=C/c1ccc2nc(-c3ccc(OC(F)(F)F)cc3)n(C)c2c1` , report its measured percent effect (mortality or growth inhibition) at 200 ppm.
≥ 80%

Given the entry `CC(C)c1ccccc1NC(=O)N/N=C/c1ccc2c(c1)nc(-c1ccc(OC(F)(F)F)cc1)n2C` , report its measured percent effect (mortality or growth inhibition) at 200 ppm.
≥ 80%
